Entry source: ChEMBL document CHEMBL1124358

Would you mind telling me the reported EDmin of each entry?
- System: Mus musculus
- Assay notes: Effective dose required to evoke catalepsy in mouse when administered perorally
- Assay type: functional
Just the number in mg/kg, nothing appended.

Problem: For the compound shown here, "CN1CCN(C2=Nc3cc(F)ccc3Nc3ncn(C)c32)CC1" , give the reported EDmin.
Result: 100

Problem: For the compound shown here, "CN1CCN(C2=Nc3cc(C(F)(F)F)ccc3Nc3nn(C)nc32)CC1" , give the reported EDmin.
Result: 50

Problem: For the compound shown here, "CN1CCN(C2=Nc3cc(Cl)ccc3Nc3nn(C)nc32)CC1" , give the reported EDmin.
Result: 12.5

Problem: For the compound shown here, "CN1CCN(C2=Nc3cc(Cl)c(Cl)cc3Nc3nn(C)nc32)CC1" , give the reported EDmin.
Result: 100

Problem: For the compound shown here, "CN1CCN(C2=Nc3cc(F)ccc3Nc3nn(C)nc32)CC1" , give the reported EDmin.
Result: 25

Problem: For the compound shown here, "CCn1nc2c(n1)C(N1CCN(C)CC1)=Nc1cc(Cl)ccc1N2" , give the reported EDmin.
Result: 12.5

Problem: For the compound shown here, "CN1CCN(C2=Nc3cc(Br)ccc3Nc3nn(C)nc32)CC1" , give the reported EDmin.
Result: 12.5

Problem: For the compound shown here, "Cc1cc2c(s1)Nc1ccc(F)cc1N=C2N1CCN(C)CC1" , give the reported EDmin.
Result: 6.25

* * *

Would you mind telling me the reported EDmin of each entry?
- System: Mus musculus
- Assay notes: Effective dose required to evoke catalepsy in mouse when administered perorally
- Type: functional
Just the number in mg/kg, nothing appended.

Problem: For the compound shown here, "CN1CCN(C2=Nc3cc(Cl)ccc3Nc3ccccc32)CC1" , give the reported EDmin.
Result: 100

Problem: For the compound shown here, "CCn1nc2c(n1)C(N1CCN(C)CC1)=Nc1cc(F)ccc1N2" , give the reported EDmin.
Result: 12.5

Problem: For the compound shown here, "CN1CCN(C2=Nc3ccccc3Nc3nn(C)nc32)CC1" , give the reported EDmin.
Result: 25

Problem: For the compound shown here, "CN1CCN(C2=Nc3cc(Cl)c(Cl)cc3Nc3ncccc32)CC1" , give the reported EDmin.
Result: 50

* * *

- Measured target: Muscarinic acetylcholine receptor
- Assay notes: Inhibitory activity against Muscarinic acetylcholine receptor in male olac rat brain, using [3H]-QNB as the radioligand
Would you mind telling me the reported IC50 of each entry?
Just the number in nM, nothing appended.

Problem: For the molecule shown here, "CN1CCN(C2=Nc3cc(Br)ccc3Nc3nn(C)nc32)CC1" , give the reported IC50.
Result: 4000

Problem: For the molecule shown here, "CN1CCN(C2=Nc3cc(Cl)ccc3Nc3nn(C)nc32)CC1" , give the reported IC50.
Result: 2600

* * *

- Measured target: D(2) dopamine receptor (Bos taurus)
- Sequence (P20288 whole entry): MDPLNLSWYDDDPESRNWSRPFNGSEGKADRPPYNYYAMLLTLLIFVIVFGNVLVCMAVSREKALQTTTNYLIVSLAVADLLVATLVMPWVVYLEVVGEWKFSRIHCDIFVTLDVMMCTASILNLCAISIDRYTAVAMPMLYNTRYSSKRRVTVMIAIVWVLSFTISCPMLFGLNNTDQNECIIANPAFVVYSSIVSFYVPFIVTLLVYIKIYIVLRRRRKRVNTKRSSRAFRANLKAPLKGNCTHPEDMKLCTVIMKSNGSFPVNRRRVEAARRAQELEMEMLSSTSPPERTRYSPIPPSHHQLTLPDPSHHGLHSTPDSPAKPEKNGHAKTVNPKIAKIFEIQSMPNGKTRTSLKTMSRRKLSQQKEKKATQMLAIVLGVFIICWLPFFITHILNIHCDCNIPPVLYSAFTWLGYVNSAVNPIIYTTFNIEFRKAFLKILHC
- Assay notes: Inhibitory activity Dopamine receptor D2 in calf caudate tissue, using [3H]spiperone as the radioligand
Measurement label: IC50 (nM)
Just the number in nM, nothing appended.

Problem: For the molecule shown here, "CN1CCN(C2=Nc3cc(Br)ccc3Nc3nn(C)nc32)CC1" , give the reported IC50.
Result: 300

* * *

Would you mind telling me the reported IC50 of each entry?
- Measured target: Muscarinic acetylcholine receptor
- Assay notes: Inhibitory activity against muscarinic cholinergic receptors in male olac rat brain, using [3H]QNB as the radioligand
Just the number in nM, nothing appended.

Problem: # value lookup — system Muscarinic acetylcholine receptor, readout IC50, item Cc1cc2c(s1)Nc1ccc(F)cc1N=C2N1CCN(C)CC1 [FLUMEZAPINE]
Result: 80

Problem: # value lookup — system Muscarinic acetylcholine receptor, readout IC50, item "CN1CCN(C2=Nc3cc(F)ccc3Nc3c2ncn3C)CC1"
Result: 122000

Problem: # value lookup — system Muscarinic acetylcholine receptor, readout IC50, item "CCn1cnc2c1Nc1ccc(F)cc1N=C2N1CCN(C)CC1"
Result: 61000

Problem: # value lookup — system Muscarinic acetylcholine receptor, readout IC50, item "CCn1nc2c(n1)C(N1CCN(C)CC1)=Nc1cc(Cl)ccc1N2"
Result: 2400

* * *

- Measured target: D(2) dopamine receptor (Bos taurus)
- Assay notes: Inhibitory activity against Dopamine receptor D2 in calf caudate tissue, using [3H]spiperone as the radioligand
In plain terms, low IC50, meaning strictly below 1 µM, gives label 1, and everything else gives label 0.

Problem: Regarding "CN1CCN(C2=Nc3ccccc3Nc3c2nnn3C)CC1" , kindly confirm whether its IC50 is beneath 1 µM.
Result: label 0

Problem: Regarding "CN1CCN(C2=Nc3cc(Cl)ccc3Nc3nn(C)nc32)CC1" , kindly confirm whether its IC50 is beneath 1 µM.
Result: label 1

Problem: Regarding "CN1CCN(C2=Nc3cc(F)ccc3Nc3nn(C)nc32)CC1" , kindly confirm whether its IC50 is beneath 1 µM.
Result: label 1

Problem: Regarding "CN1CCN(C2=Nc3cc(C(F)(F)F)ccc3Nc3nn(C)nc32)CC1" , kindly confirm whether its IC50 is beneath 1 µM.
Result: label 0

Problem: Regarding "CN1CCN(C2=Nc3cc(Cl)c(Cl)cc3Nc3nn(C)nc32)CC1" , kindly confirm whether its IC50 is beneath 1 µM.
Result: label 0

Problem: Regarding "CN1CCN(C2=Nc3ccccc3Nc3ncccc32)CC1" , kindly confirm whether its IC50 is beneath 1 µM.
Result: label 0

Problem: Regarding "CN1CCN(C2=Nc3cc(Cl)c(Cl)cc3Nc3ncccc32)CC1" , kindly confirm whether its IC50 is beneath 1 µM.
Result: label 0

* * *

Would you mind telling me the reported pIC50 of each entry?
- Measured target: D(2) dopamine receptor (Bos taurus)
- Assay notes: Inhibitory activity against dopamine receptor D2 in calf caudate tissue using [3H]spiperone
pIC50: −log10 of the molar value.

Problem: For the compound shown here, "CN1CCN(C2=Nc3cc(F)ccc3Nc3ncn(C)c32)CC1" , give the reported pIC50.
Result: < 5.00

Problem: For the compound shown here, "Cc1nc2c(n1C)C(N1CCN(C)CC1)=Nc1cc(F)ccc1N2" , give the reported pIC50.
Result: < 5.00

Problem: For the compound shown here, "CCn1nc2c(n1)C(N1CCN(C)CC1)=Nc1cc(F)ccc1N2" , give the reported pIC50.
Result: 6.74

Problem: For the compound shown here, "CN1CCN(C2=Nc3cc(F)ccc3Nc3c2ncn3C2CCCCC2)CC1" , give the reported pIC50.
Result: < 5.00

Problem: For the compound shown here, "CN1CCN(C2=Nc3cc(F)ccc3Nc3c2ncn3C)CC1" , give the reported pIC50.
Result: < 4.00

Problem: For the compound shown here, "CN1CCN(C2=Nc3ccccc3Nc3nn(C)nc32)CC1" , give the reported pIC50.
Result: 5.85

Problem: For the compound shown here, "CCn1nc2c(n1)C(N1CCN(C)CC1)=Nc1cc(Cl)ccc1N2" , give the reported pIC50.
Result: 7.17

Problem: For the compound shown here, "CCn1cnc2c1Nc1ccc(F)cc1N=C2N1CCN(C)CC1" , give the reported pIC50.
Result: < 5.00

* * *

- Test system: Mus musculus
- Assay notes: Effective dose required to evoke catalepsy in mouse when administered perorally
- Assay type: functional
Measurement label: EDmin

Problem: For the compound shown here, "CCn1cnc2c1Nc1ccc(F)cc1N=C2N1CCN(C)CC1" , give the reported EDmin.
Result: >200 mg/kg

Problem: For the compound shown here, "CN1CCN(C2=Nc3cc(F)ccc3Nc3c2ncn3C2CCCCC2)CC1" , give the reported EDmin.
Result: >400 mg/kg

Problem: For the compound shown here, "Cc1nc2c(n1C)C(N1CCN(C)CC1)=Nc1cc(F)ccc1N2" , give the reported EDmin.
Result: >200 mg/kg

* * *

- Measured target: Muscarinic acetylcholine receptor
- Assay notes: Inhibitory activity against Muscarinic acetylcholine receptor in male olac rat brain, using [3H]-QNB as the radioligand
Would you mind telling me the reported IC50 of each entry?

Problem: For the compound shown here, "CN1CCN(C2=Nc3cc(Cl)c(Cl)cc3Nc3nn(C)nc32)CC1" , give the reported IC50.
Result: > 1 µM

Problem: For the compound shown here, "CN1CCN(C2=Nc3cc(C(F)(F)F)ccc3Nc3nn(C)nc32)CC1" , give the reported IC50.
Result: > 1 µM

Problem: For the compound shown here, "CN1CCN(C2=Nc3cc(F)ccc3Nc3nn(C)nc32)CC1" , give the reported IC50.
Result: > 1 µM

* * *

- Measured target: Muscarinic acetylcholine receptor
- Assay notes: Inhibitory activity against muscarinic cholinergic receptors in male olac rat brain, using [3H]QNB as the radioligand
Measurement label: IC50

Problem: For the compound shown here, "CN1CCN(C2=Nc3cc(F)ccc3Nc3ncn(C)c32)CC1" , give the reported IC50.
Result: > 1000 nM

Problem: For the compound shown here, "CN1CCN(C2=Nc3ccccc3Nc3nn(C)nc32)CC1" , give the reported IC50.
Result: > 1000 nM

Problem: For the compound shown here, "CN1CCN(C2=Nc3cc(F)ccc3Nc3c2ncn3C2CCCCC2)CC1" , give the reported IC50.
Result: > 100000 nM

Problem: For the compound shown here, "Cc1nc2c(n1C)C(N1CCN(C)CC1)=Nc1cc(F)ccc1N2" , give the reported IC50.
Result: > 1000 nM

Problem: For the compound shown here, "CCn1nc2c(n1)C(N1CCN(C)CC1)=Nc1cc(F)ccc1N2" , give the reported IC50.
Result: > 1000 nM
